molecular target: Cholinesterase (Homo sapiens, UniProt P06276)
Sequence (P06276 whole entry): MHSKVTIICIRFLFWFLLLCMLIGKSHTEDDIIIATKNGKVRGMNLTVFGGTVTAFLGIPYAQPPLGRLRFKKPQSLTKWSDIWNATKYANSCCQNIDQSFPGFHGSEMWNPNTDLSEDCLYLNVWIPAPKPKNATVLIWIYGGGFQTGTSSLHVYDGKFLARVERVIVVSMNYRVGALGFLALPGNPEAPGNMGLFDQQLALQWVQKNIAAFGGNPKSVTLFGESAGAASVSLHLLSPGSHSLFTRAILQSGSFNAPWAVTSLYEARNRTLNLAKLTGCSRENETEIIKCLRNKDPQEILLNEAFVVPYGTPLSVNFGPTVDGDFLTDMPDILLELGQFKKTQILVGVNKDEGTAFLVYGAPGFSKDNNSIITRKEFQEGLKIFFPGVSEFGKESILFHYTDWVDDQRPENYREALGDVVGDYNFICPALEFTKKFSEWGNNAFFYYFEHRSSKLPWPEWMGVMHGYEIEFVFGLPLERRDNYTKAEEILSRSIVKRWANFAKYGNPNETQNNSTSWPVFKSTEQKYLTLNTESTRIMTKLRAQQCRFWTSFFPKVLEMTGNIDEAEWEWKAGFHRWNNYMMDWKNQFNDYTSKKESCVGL
MEASURED_ENDPOINT: pKi
One number for each entry, as −log10 of the molar value.

Record excerpt, results attached:
{"STRUCTURE_SMILES_STRING": "CN(C)CCOC(=O)Nc1ccnc(Cl)c1", "pKi": 3.42}
{"STRUCTURE_SMILES_STRING": "C[N+](C)(C)CCOC(=O)Nc1ccncc1Br", "pKi": 3.56}
{"STRUCTURE_SMILES_STRING": "C[N+](C)(C)CCOC(=O)Nc1ccncc1.[I-]", "pKi": 3.12}

For every item below, please supply its pKi.
1. C[N+](C)(C)CCOC(=O)Nc1ccnc(Cl)c1
2. C[N+](C)(C)CCOC(=O)Nc1cc(Cl)nc(Cl)c1.[I-]
3. CN(C)CCOC(=O)Nc1ccncc1Br
4. CN(C)CCOC(=O)Nc1ccncc1
5. CN(C)CCOC(=O)Nc1cc(Cl)nc(Cl)c1

Result string:
1. 3.79
2. 4.71
3. 3.56
4. 4.69
5. 3.76
